Target: human BRD4 first bromodomain (BDI_K57-E168) (Homo sapiens (Human))
Assay: TR-FRET bromodomain binding assay, BRD4 first bromodomain
pKi reference
Quick note: pKi means taking -log10 of the concentration in moles per liter.

Example entries begin here.
CCNC(=O)c1cc2c(-c3cc(NS(C)(=O)=O)ccc3Oc3ccccc3)nn(C)c(=O)c2[nH]1 [Example 81] = 8.02
Cn1cc(-c2cc(S(C)(=O)=O)ccc2OC2C3CC4CC(C3)CC2C4)c2cc[nH]c2c1=O (stereo not shown) [Example 237] = 8.52
CCNC(=O)c1ccc(Oc2ccccc2)c(-c2cn(C)c(=O)c3[nH]ccc23)c1 [Example 13] = 8.43

Ask: What does the data say about its pKi? Entry: Cn1cc(-c2cc(NC(=O)CC(F)(F)F)ccc2Oc2ccc(F)cc2F)c2cc[nH]c2c1=O [Example 38]
Reply: 6.83
